B1: glmS ribozyme (parent)
chain: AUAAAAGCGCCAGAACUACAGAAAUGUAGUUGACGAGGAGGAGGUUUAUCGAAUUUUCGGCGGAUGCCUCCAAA

# Variants of: B1
# procedure_text: kcat; higher = faster cleavage; RNA array
# condition_summary: with glucosamine-6-phosphate
This sample holds only a part of the variants without activity.
Let's look at some variants and their measured log10 kcat.
quantity_kind: log10 kcat (log10 of the value in s⁻¹)

[[record]]
mutation_notation = "A39U A64C"
quantity_kind = "log10 kcat"
endpoint_result = -3.57

[[record]]
mutation_notation = "A12C U46A"
quantity_kind = "log10 kcat"
endpoint_result = -2.88

[[record]]
mutation_notation = "A6U G66A"
quantity_kind = "log10 kcat"
endpoint_result = -3.69

[[record]]
mutation_notation = "A6U A23C U30G"
quantity_kind = "log10 kcat"
endpoint_result = -4.27

[[record]]
mutation_notation = "G43U U54G"
quantity_kind = "log10 kcat"
endpoint_result = -4.06

[[record]]
mutation_notation = "A52G A53G"
quantity_kind = "log10 kcat"
endpoint_result = -2.74

[[record]]
mutation_notation = "A39C U57C"
quantity_kind = "log10 kcat"
endpoint_result = -4.72

[[record]]
mutation_notation = "U55G G66A"
quantity_kind = "log10 kcat"
endpoint_result = -1.87

[[record]]
mutation_notation = "A53G G66A"
quantity_kind = "log10 kcat"
endpoint_result = -1.53

[[record]]
mutation_notation = "C11A A64G"
quantity_kind = "log10 kcat"
endpoint_result = -3.77

[[record]]
mutation_notation = "A12C A52U"
quantity_kind = "log10 kcat"
endpoint_result = -3.40

[[record]]
mutation_notation = "A14U G59A"
quantity_kind = "log10 kcat"
endpoint_result = -4.22

[[record]]
mutation_notation = "A48C U54G"
quantity_kind = "log10 kcat"
endpoint_result = -3.30

[[record]]
mutation_notation = "U57A C70G"
quantity_kind = "log10 kcat"
endpoint_result = -4.41

[[record]]
mutation_notation = "C68A C70U"
quantity_kind = "log10 kcat"
endpoint_result = -4.94

[[record]]
mutation_notation = "G40U U47G"
quantity_kind = "log10 kcat"
endpoint_result = -3.12

[[record]]
mutation_notation = "U46A C68A"
quantity_kind = "log10 kcat"
endpoint_result = -4.72

[[record]]
mutation_notation = "A48U U55A"
quantity_kind = "log10 kcat"
endpoint_result = -3.32

[[record]]
mutation_notation = "A14U A52G"
quantity_kind = "log10 kcat"
endpoint_result = -3.42

[[record]]
mutation_notation = "A14G A48G"
quantity_kind = "log10 kcat"
endpoint_result = -3.60

